tgt: fusion protein PRS
Sequence (chain, as listed by the source): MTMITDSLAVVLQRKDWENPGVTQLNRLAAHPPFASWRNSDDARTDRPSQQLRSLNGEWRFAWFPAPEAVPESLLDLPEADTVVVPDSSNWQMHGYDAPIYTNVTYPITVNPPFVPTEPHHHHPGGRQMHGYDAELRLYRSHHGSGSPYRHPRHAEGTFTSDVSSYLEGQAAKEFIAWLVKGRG

protein: OmpT protease variant OmpT D97Y (protein) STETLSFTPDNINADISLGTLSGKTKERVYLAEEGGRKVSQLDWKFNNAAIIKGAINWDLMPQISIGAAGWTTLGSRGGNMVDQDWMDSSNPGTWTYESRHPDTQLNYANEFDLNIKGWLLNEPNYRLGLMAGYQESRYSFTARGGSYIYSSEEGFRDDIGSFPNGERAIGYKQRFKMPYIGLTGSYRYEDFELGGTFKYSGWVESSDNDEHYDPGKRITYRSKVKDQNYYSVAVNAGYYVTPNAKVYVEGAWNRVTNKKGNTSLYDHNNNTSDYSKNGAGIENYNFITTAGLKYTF
relative cleavage efficiency: less than 3.0%
--
protein: OmpT protease variant OmpT D97P (protein) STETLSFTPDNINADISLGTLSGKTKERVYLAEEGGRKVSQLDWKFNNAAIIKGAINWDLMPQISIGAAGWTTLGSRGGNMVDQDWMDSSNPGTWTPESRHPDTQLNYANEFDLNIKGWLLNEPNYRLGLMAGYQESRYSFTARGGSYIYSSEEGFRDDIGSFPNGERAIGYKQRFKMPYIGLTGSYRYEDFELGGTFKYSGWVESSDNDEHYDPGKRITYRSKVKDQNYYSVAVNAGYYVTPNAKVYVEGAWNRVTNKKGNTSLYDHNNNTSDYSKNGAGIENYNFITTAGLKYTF
relative cleavage efficiency: less than 3.0%
--
protein: OmpT protease variant OmpT D97N (protein) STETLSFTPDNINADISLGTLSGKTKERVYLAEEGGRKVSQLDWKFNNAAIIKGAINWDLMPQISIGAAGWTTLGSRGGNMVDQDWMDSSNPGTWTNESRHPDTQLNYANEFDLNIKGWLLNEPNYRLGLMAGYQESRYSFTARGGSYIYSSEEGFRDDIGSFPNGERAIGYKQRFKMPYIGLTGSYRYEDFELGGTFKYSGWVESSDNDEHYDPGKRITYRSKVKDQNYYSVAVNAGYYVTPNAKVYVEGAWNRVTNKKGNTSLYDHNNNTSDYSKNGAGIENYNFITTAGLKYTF
relative cleavage efficiency: 4.1%
--
protein: OmpT protease variant OmpT D97G (protein) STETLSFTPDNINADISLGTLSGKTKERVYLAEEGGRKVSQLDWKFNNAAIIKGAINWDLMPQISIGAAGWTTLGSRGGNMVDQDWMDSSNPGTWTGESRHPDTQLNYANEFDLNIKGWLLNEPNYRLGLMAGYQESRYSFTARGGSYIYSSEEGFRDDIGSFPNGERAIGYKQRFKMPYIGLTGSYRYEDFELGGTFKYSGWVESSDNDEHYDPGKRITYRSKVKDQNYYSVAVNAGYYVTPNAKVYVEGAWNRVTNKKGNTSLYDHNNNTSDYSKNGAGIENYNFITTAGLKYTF
relative cleavage efficiency: less than 3.0%
